Molecular target: SUMO E1 or SUMO E2 (Homo sapiens, UniProt Q9UBE0+Q9UBT2)
Experiment: SUMOylation HTS assay, SUMO (AlphaScreen-BSA), SUMOylation of RanGAP1
Assay type: biochemical
Here the recorded SUMO (AlphaScreen-BSA) IC50 is given for each entry.
Answer in µM, number only, no unit symbol.

Known SUMO (AlphaScreen-BSA) IC50 results, listed for orientation:
COC(=O)C1=C(C(=O)OC)C2([C@H](Cc3ccccc3)Nc3ccc(C)cc3)C=CC1O2 (stereo partly drawn) [MLS-0437110]	9.2
COC(=O)C1=C(C(=O)OC)C2([C@@H](Cc3ccccc3)Nc3ccc(OC)cc3)C=CC1O2 (stereo partly drawn) [MLS-0437118]	9.5

For the next question, use this compound.
Item under review: C=CC[C@H](Nc1ccc(Cl)cc1)C12C=CC(O1)C(C(=O)OC)=C2C(=O)OC (stereo partly drawn) [MLS-0437127] . Reported SUMO (AlphaScreen-BSA) IC50?
11.5

====

Experiment: Stability in Tris buffer, parent remaining by HPLC-MS
Type: physicochemical
Details: 60 min, 50 mM Tris, with BSA
measured_property: % Remaining after 60 min in 50 mM Tris (+BSA) (%)
Your answer should be a plain number; it is taken to be in %.

COC(=O)C1=C(C(=O)OC)C2([C@@H](Nc3ccccc3)c3ccc(C)cc3)C=C[C@@H]1O2 (stereo in doubt)	85

Fill in the blank: the reported % Remaining after 60 min in 50 mM Tris (+BSA) of COC(=O)C1=C(C(=O)OC)C2(C(Nc3ccccc3)c3ccc(OC(F)(F)F)cc3)C=C[C@@H]1O2 (stereo partly shown) is ____.
64

Could you tell me which % Remaining after 60 min in 50 mM Tris (+BSA) is on file for CCC[C@H](Nc1ccccc1)C12C=C[C@H](O1)C(C(=O)OC)=C2C(=O)OC (stereo in doubt) ?
89

Param item = COC(=O)C1=C(C(=O)OC)C2(C(Nc3ccccc3)c3ccc(F)cc3)C=C[C@@H]1O2 (stereo partly shown) ; retrieve measured % Remaining after 60 min in 50 mM Tris (+BSA).
87

====

Biological target: SUMO E1 (Homo sapiens, UniProt Q9UBE0+Q9UBT2)
Sequence (Q9UBE0 whole entry): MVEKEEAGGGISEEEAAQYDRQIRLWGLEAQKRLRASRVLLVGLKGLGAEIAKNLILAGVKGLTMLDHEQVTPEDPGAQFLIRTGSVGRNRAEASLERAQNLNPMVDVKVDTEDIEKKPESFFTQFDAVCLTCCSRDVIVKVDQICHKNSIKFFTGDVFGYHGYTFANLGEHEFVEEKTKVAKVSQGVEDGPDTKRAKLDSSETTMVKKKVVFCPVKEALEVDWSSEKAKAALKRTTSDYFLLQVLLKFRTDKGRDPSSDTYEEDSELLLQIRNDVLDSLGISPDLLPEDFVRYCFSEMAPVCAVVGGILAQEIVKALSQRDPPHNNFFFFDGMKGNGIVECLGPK
Sequence (Q9UBT2 whole entry): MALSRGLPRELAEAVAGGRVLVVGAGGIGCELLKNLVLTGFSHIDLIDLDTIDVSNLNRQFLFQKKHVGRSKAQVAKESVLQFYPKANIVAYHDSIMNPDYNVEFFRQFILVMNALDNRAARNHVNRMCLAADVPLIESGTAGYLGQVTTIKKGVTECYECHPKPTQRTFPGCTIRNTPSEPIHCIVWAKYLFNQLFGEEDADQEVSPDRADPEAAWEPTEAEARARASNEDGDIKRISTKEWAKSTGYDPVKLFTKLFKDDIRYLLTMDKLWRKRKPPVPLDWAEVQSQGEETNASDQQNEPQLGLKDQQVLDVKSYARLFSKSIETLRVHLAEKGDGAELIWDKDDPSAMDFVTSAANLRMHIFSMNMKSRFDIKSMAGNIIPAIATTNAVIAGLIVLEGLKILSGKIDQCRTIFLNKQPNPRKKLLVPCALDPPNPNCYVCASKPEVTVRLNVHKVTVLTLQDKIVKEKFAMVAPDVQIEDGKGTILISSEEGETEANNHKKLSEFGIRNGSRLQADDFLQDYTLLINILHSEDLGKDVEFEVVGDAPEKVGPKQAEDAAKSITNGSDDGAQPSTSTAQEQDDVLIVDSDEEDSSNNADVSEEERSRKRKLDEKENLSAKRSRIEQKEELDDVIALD
Assay: Gel-based assay of SUMO-RanGap1, E1-SUMO and E2~SUMO thioester conjugate formation
Type: biochemical
Conditions: strength in words
measured_property: SUMO-RanGap1 and SUMO-E2 Conjugation Inhibition

COC(=O)C1=C(C(=O)OC)C2([C@H](Cc3ccccc3)Nc3ccccc3)C=CC1O2 (mixture of isomers) [MLS-0437114]	Weak
COC(=O)C1=C(C(=O)OC)C2([C@@H](Cc3ccccc3)Nc3ccc(Cl)cc3)C=CC1O2 (mixture of isomers) [MLS-0437120]	Weak
COC(=O)C1=C(C(=O)OC)[C@@]2([C@@H](Cc3ccccc3)Nc3ccccc3)C=C[C@@H]1O2 (racemic) [MLS-0437113]	Strong
COC(=O)C1=C(C(=O)OC)C2([C@@H](Cc3ccccc3)Nc3ccc(C)cc3)C=CC1O2 (stereo partly drawn) [MLS-0437109]	Weak

Now let's try a different one.
Observed SUMO-RanGap1 and SUMO-E2 Conjugation Inhibition on SUMO E1 (Homo sapiens, UniProt Q9UBE0+Q9UBT2) for C=CC[C@@H](Nc1ccccc1)C12C=CC(O1)C(C(=O)OC)=C2C(=O)OC (stereo partly drawn) [MLS-0437111] , please.
Strong
